# Test system: FYN;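 note: KINOMEscan kinase panel screen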
# CONDITION DESCRIPTION: concentration: 1 μM, replicates: in singlicate; n = 1
Parameter: %Inh. Scope: all listed entries.
The answer is to be given in %; state only the numeric part.

These recorded examples may help you get a feel for the data.
> print(dat)
                                   molecule  unit.abbreviation  result
1  O=c1cc(N2CCOCC2)nc2n(Cc3cccc(Cl)c3Cl)c(C3CC3)nn12                  %       6
2  O=C(NCCCN1CCOCC1)c1cccc(Nc2nccc(Nc3ccc(Oc4ccccc4)cc3)n2)c1                  %    93.5
3  O=C1NC(=O)C(N2CCc3ccccc32)=C1c1cccc(Cl)c1                  %       0
4  Cc1c(Cn2c(C)nn3c(=O)cc(N4CCOC(C)C4)nc23)cccc1C(F)(F)F (centres unmarked)                  %       2

Turning now to a further record.
Q. Item Nc1nccc(-c2c(-c3ccc(F)cc3)ncn2C2CCN(CC(F)(F)F)CC2)n1 has what recorded %Inh?
A. 0
